Numbers sourced from paper PMC5607274.

- target-or-test-system: human recombinant Yes [a.a. 2–543 (end)] (Homo sapiens, UniProt P07947)
- Construct: human recombinant Yes [a.a; 2–543 (end)]; purchased BPS Bioscience 40488
- Sequence (P07947 2-543): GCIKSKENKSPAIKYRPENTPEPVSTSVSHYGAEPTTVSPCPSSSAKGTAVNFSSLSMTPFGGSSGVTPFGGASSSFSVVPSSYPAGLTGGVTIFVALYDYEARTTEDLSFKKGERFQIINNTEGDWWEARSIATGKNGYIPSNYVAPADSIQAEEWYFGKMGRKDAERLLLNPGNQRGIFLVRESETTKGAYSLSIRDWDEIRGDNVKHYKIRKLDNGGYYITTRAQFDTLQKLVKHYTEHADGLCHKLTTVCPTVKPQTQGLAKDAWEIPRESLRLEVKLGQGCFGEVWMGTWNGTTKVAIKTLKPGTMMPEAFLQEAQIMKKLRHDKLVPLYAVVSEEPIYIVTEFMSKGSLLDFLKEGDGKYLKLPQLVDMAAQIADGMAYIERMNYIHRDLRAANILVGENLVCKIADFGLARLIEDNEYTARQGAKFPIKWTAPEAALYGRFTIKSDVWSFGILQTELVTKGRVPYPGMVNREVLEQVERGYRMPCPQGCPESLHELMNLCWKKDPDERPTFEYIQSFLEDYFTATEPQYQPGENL
- assay-notes: ADP-Glo kinase assay, inhibition rates of Yes phosphorylation activity (first and second screening)
- Assay type: biochemical
- cond: first screening; mean of n = 4 wells; 10 μmol L−1 compound
measured-metric: First screening IR (inhibition rate) (%)

1 = COc1cc(/C=C/C(=O)N2CCCC2c2c(C)nn(C)c2C)cc(Br)c1O (stereo not shown)
2 = CCN(Cc1ccc2c(c1)OCCO2)C(=O)CSc1nnc(C(C)N(C)C)n1-c1ccc(F)cc1 (stereo not shown)
3 = Cc1ccc(C(=O)C(Sc2nnc(C3COc4ccccc4O3)n2C)c2ccc(C)cc2)cc1 (stereo not shown)
4 = Cc1cc(NC(=O)c2ccn(-c3ccccc3)n2)n(CCC#N)n1
// rank the listed molecules by First screening IR (inhibition rate), lowest value first Please list the labels according to the requested order. 3, 4, 2, 1

====

- target-or-test-system: human recombinant Yes [a.a. 2–543 (end)] (Homo sapiens)
- Construct: human recombinant Yes [a.a; 2–543 (end)]; purchased BPS Bioscience 40488
- assay-notes: ADP-Glo kinase assay, inhibition rates of Yes phosphorylation activity (first and second screening)
- Assay type: biochemical
- cond: first screening; mean of n = 4 wells; 10 μmol L−1 compound
measured-metric: First screening IR (inhibition rate) (%)

- compound: "COc1cc(NC(=O)Cc2c(C)[nH]c3ccccc23)c(C(N)=O)cc1OC"
  First screening IR (inhibition rate), %: -25
- compound: "Cc1cnc(NC(=O)CCCc2nc3ccccc3c(=O)[nH]2)s1"
  First screening IR (inhibition rate), %: 9
- compound: "CN(CC(=O)NCc1ccco1)C(=O)/C=C/c1ccc(-n2ccnc2)cc1"
  First screening IR (inhibition rate), %: 2
- compound: "Cc1ccc(-c2c(C)sc3nc(CN4CCN(CC(=O)N5CCOCC5)CC4)[nH]c(=O)c23)cc1"
  First screening IR (inhibition rate), %: 5
- compound: "COc1ccc(/C=C2/CCCc3c2nc2ccccc2c3C(=O)OCC(=O)Nc2sc3c(c2C(=O)Nc2ccc(Cl)cc2)CCCC3)cc1"
  First screening IR (inhibition rate), %: 7
- compound: "Cn1cc(CNC2CCc3ncnn3C2)c(-c2ccncc2)n1 (stereo not shown)"
  First screening IR (inhibition rate), %: 22

P = CCCn1c(=O)[nH]c(=O)c2c(C(=O)Nc3ccccc3N3CCOCC3)cc(C3CC3)nc21
Q = Clc1ccccc1Cn1ncc2c(N3CCCC3)ncnc21
R = O=C1Nc2ccccc2/C1=C\c1c(Cl)nc2sccn12
S = CC(SCc1nc(N)nc(N(C)C)n1)C(=O)Nc1cc(F)ccc1F (stereo not shown)
Sort by First screening IR (inhibition rate), descending. Please list the labels according to the requested order. Q, R, S, P

1 = COc1ccc(-n2c(SCC(=O)N3CCCCCC3)nnc2-c2ccc(Cl)cc2)cc1
2 = Cc1sc2ncnc(N/N=C/c3cccc(Br)c3)c2c1C
3 = Cl.Fc1c(-c2ccccc2)nc2ccccc2c1-c1ccccc1
Sort by First screening IR (inhibition rate), descending. Please list the labels according to the requested order. 3, 2, 1

A = COc1ccc(Nc2cc3c(nnn3-c3ccc(C)cc3)c3c2C(=O)c2ccccc2C3=O)cc1
B = COc1ccc(OC)c2c1CN(c1nc(CN3CCOCC3)nc3sc(C)c(C)c13)CC2O (stereo not shown)
Which of the two gives a bigger number for First screening IR (inhibition rate): A or B ? Response format: the label of the selected entry. B
